TGT: Gastrin/cholecystokinin type B receptor (Homo sapiens)
Sequence (P32239 whole entry): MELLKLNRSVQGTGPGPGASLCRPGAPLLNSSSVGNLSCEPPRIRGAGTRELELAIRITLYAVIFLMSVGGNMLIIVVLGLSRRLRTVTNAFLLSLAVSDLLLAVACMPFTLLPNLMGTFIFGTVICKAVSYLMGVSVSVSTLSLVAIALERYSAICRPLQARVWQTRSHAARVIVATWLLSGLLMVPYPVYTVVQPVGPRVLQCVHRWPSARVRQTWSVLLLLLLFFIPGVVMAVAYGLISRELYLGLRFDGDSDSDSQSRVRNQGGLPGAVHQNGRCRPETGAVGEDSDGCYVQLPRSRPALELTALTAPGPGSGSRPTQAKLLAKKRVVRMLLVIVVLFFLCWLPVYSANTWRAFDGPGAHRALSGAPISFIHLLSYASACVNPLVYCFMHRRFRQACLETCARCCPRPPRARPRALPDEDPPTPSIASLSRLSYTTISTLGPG
OBSERVATION_TYPE: Kd
Report field: quantity (unit follows the number).

Look up and report measured Kd for this entry: `CN1C(=O)[C@H](NC(=O)Nc2cccc([125I])c2)N=C(c2ccccc2)c2ccccc21`
2.95 nM
